So I've got a bunch of molecules here, and I need their melting point values.
Where a name gives a salt, the structure may show the parent alone.

List the reported melting point of each molecule below.
1. CC[C@H](C1CC1)n1cc(Cl)nc(N2CCc3cc(OC)cc(C)c32)c1=O (as salt: hydrochloride)
2. CC[C@H](COC)n1cc(Br)nc(N2CCc3cc(Cl)cc(Cl)c32)c1=O
3. CC[C@H](COC)n1cc(Cl)nc(N2CCc3cc(OC)cc(C#N)c32)c1=O
4. CC[C@@H](C1CC1)n1cc(Cl)nc(N2CCc3cc(Br)cc(Cl)c32)c1=O
5. CC[C@H](C1CC1)n1cc(Cl)nc(N2CCc3cc(Br)cc(Br)c32)c1=O
6. CCC(CC)n1cc(Br)nc(N2CCc3cc(OC)cc(Br)c32)c1=O (as salt: hydrochloride)
7. CC[C@@H](C1CC1)n1cc(Cl)nc(N2CCc3cc(Br)cc(Br)c32)c1=O

Given back:
1: 160 to 162 °C; 2: 150 to 152 °C; 3: 141 to 142 °C; 4: 126 to 127 °C; 5: 164 to 165 °C; 6: 133 to 135 °C; 7: 165 °C

Look up melting point for the entries below, preserving their order.
1. CC[C@H](COC)n1cc(Br)nc(N2CCc3cc(Br)cc(Cl)c32)c1=O
2. CCC(CCOC)n1cc(Cl)nc(N2CCc3cc(Cl)cc(Cl)c32)c1=O (stereo not drawn)

Given back:
118 °C
95 to 97 °C

---

Where a name gives a salt, the structure may show the parent alone.
Assign melting point to each entry below.

Previously resolved entries follow.
Asked: Find the recorded melting point belonging to "COC[C@@H](C)n1cc(Cl)nc(N2CCc3cc(Cl)cc(Cl)c32)c1=O" and report it.
Given back: 93 to 95 °C

Asked: Same question for "CCC(CC)n1cc(Br)nc(N2CCc3cc(Cl)cc(Cl)c32)c1=O" please.
Given back: 158 to 160 °C

Asked: // query: "CC[C@H](C1CC1)n1cc(Cl)nc(N2CCc3cc(Cl)cc(Cl)c32)c1=O"
Given back: 166 to 168 °C

Asked: Try CC[C@@H](C1CC1)n1cc(Cl)nc(N2CCc3cc(OC)cc(Br)c32)c1=O (as salt: hydrochloride) next.
Given back: 138 to 140 °C

Asked: Quick one: CCC(COC)Nc1nc(C)nc(N2CCc3cc(OC)cc(Cl)c32)c1C=O (centres unmarked)
Given back: 150 to 153 °C

Report melting point for each item below.
1. COc1cc(C)c2c(c1)CCN2c1nc(Cl)cn(CCSC)c1=O (as salt: hydrochloride)
2. CC[C@H](COC)n1cc(Br)nc(N2CCc3cc(OC)c(F)c(Cl)c32)c1=O

Given back:
["111 to 113 °C", "150 to 152 °C"]

Asked: // lookup melting point for "CCC(CC)n1cc(Cl)nc(N2CCc3cc(Br)cc(Cl)c32)c1=O"
Given back: 156 to 157 °C

---

Structures can show the parent of a compound that is named as a salt.
Readout Type: melting point

Answered examples (3):
Asked: # lookup: melting point of CC[C@H](C1CC1)n1cc(Cl)nc(N2CCc3cc(Br)cc(Cl)c32)c1=O [Example 542]
Given back: 154 to 156 °C

Asked: Same read-out for CC[C@H](COC)n1cc(Br)nc(N2CCc3cc(OC)cc(C)c32)c1=O (as salt: hydrochloride) [Example 526] ?
Given back: 116 to 118 °C

Asked: # iterate: CC[C@H](COC)n1cc(Cl)nc(N2CCc3cc(OC)cc(Br)c32)c1=O (as salt: hydrochloride) [Example 523]
Given back: 102 to 104 °C

Now look at this one.
Asked: Please give the measured melting point for this compound: CCC(C)n1cc(Cl)nc(N2CCc3cc(OC)cc(Br)c32)c1=O (stereo not shown) (as salt: hydrochloride) [Example 502]
Given back: 155 to 157 °C

---

Counter-ions that a name gives are not always drawn.
Readout Type: melting point

Here are 10 compounds together with their reported answers.
Asked: Form field: reported melting point of "CCC(CC)Nc1nc(C)nc(N2CCc3cc(OC)cc(Cl)c32)c1C=O"
Given back: 178 to 179 °C

Asked: Can you handle "CCC(CC)n1cc(Cl)nc(N2CCc3cc(Cl)cc(Cl)c32)c1=O" next?
Given back: 168 to 170 °C

Asked: Field entry: CCC(COC)Nc1nc(C)nc(N2CCc3cc(OC)cc(Cl)c32)c1C#N (stereo not shown)
Given back: 182 to 183 °C

Asked: Request: "CCC(CC)n1cc(Cl)nc(N2CCCc3cc(OC)cc(Br)c32)c1=O"
Given back: 125 to 126 °C

Asked: What about this compound? "CC[C@@H](C1CC1)n1cc(Cl)nc(N2CCCc3cc(OC)cc(Br)c32)c1=O"
Given back: 118 to 119 °C

Asked: Next: "CC[C@@H](C1CC1)n1cc(Cl)nc(N2CCc3cc(Cl)cc(Cl)c32)c1=O"
Given back: 157 to 159 °C

Asked: Please answer likewise for CCC(C)n1cc(Cl)nc(N2CCc3cc(OC)cc(Cl)c32)c1=O (stereo not shown) (as salt: hydrochloride)
Given back: 143 to 145 °C

Asked: Let us now turn to "CSCCn1cc(Cl)nc(N2CCc3cc(Cl)cc(Cl)c32)c1=O"
Given back: 127 to 128 °C

Asked: One more compound: "CCC(CC)Nc1nc(C)nc(N2CCc3cc(Cl)cc(Cl)c32)c1CO"
Given back: 150 to 152 °C

Asked: Try this compound next: "CCC(CC)n1cc(C#N)nc(N2CCc3cc(Cl)cc(Cl)c32)c1=O"
Given back: 197 to 199 °C

Hi there! I need melting point for each item below, if you can.
1. CC[C@H](C1CC1)n1cc(Cl)nc(N2CCc3cc(OC)c(F)c(Cl)c32)c1=O
2. CC[C@@H](COC)n1cc(Cl)nc(N2CCCc3cc(OC)cc(Br)c32)c1=O
3. CC[C@H](COC)n1cc(Br)nc(N2CCc3cc(OC)cc(Br)c32)c1=O (as salt: hydrochloride)
4. CC[C@@H](COC)n1cc(Br)nc(N2CCc3cc(OC)cc(C)c32)c1=O (as salt: hydrochloride)

Given back:
["128 to 130 °C", "93 to 94 °C", "122 to 123 °C", "115 to 117 °C"]

Okay, here is my list. What is melting point for each of these?
1. CC[C@@H](COC)n1cc(Cl)nc(N2CCc3cc(Cl)cc(Cl)c32)c1=O
2. COc1cc(C)c2c(c1)CCN2c1nc(Cl)cn(C(C(C)C)C(C)C)c1=O (as salt: hydrochloride)

Given back:
143 to 146 °C
94 to 96 °C
